Reference source for all entries: paper PMC8222254

Test system: H460
method: Chemosensitivity, 96 h continuous exposure, MTT assay
Assay type: cell-based, human
condition description: H460; read-out: Mean IC50 values
Reported pIC50 values are given for each entry in this list.
Remember the convention: pIC50 equals -log10 of concentration in molar.

Example compounds with recorded pIC50:
[
  {
    "compound": "O=P(O)(O)Oc1ccccc1.[Zn+2].[Zn+2].[Zn+2].c1ccc(-c2csc(NCCN(CCNc3nc(-c4ccccn4)cs3)CCNc3nc(-c4ccccn4)cs3)n2)nc1.c1ccc(-c2csc(NCCN(CCNc3nc(-c4ccccn4)cs3)CCNc3nc(-c4ccccn4)cs3)n2)nc1 [[L2Zn3(O3POPh)]4+]",
    "readout number": 6.56
  },
  {
    "compound": "[Cu+2].[Cu+2].[Cu+2].c1ccc(-c2csc(NCCN(CCNc3nc(-c4ccccn4)cs3)CCNc3nc(-c4ccccn4)cs3)n2)nc1.c1ccc(-c2csc(NCCN(CCNc3nc(-c4ccccn4)cs3)CCNc3nc(-c4ccccn4)cs3)n2)nc1 [[L2Cu3]6+]",
    "readout number": 6.56
  }
]

Please give measured pIC50 of the following entry: O=P([O-])([O-])[O-].[Cu+2].[Cu+2].[Cu+2].c1ccc(-c2csc(NCCN(CCNc3nc(-c4ccccn4)cs3)CCNc3nc(-c4ccccn4)cs3)n2)nc1.c1ccc(-c2csc(NCCN(CCNc3nc(-c4ccccn4)cs3)CCNc3nc(-c4ccccn4)cs3)n2)nc1 [[L2Cu3(PO4)]3+]
5.85

Please give measured pIC50 of the following entry: CC(=O)[O-].CC(=O)[O-].CC(=O)[O-].O=P([O-])([O-])[O-].[Zn+2].[Zn+2].[Zn+2].c1ccc(-c2csc(NCCN(CCNc3nc(-c4ccccn4)cs3)CCNc3nc(-c4ccccn4)cs3)n2)nc1.c1ccc(-c2csc(NCCN(CCNc3nc(-c4ccccn4)cs3)CCNc3nc(-c4ccccn4)cs3)n2)nc1 [[L2Zn3(PO4)]3+]
6.60
